Source listed as patent US7223759B2.

System: Escherichia coli (ATCC25922) or Staphylococcus aureus (ATCC25923)
Test: Antibacterial MIC, microdilution method in Mueller-Hinton medium
Type: cell-based
Details: Escherichia coli, 18 h, read-out: Potency (MIC)
measurement-type: MIC

input: Report MIC for COc1ccc(Nc2nc(N3C[C@H](N)C[C@H](N)C3)nc(N3C[C@H](N)C[C@H](N)C3)n2)c(NC(=O)c2cccc([N+](=O)[O-])c2O)c1 please.
output: > 64 µg/mL

input: Fill in: MIC of N[C@@H]1C[C@H](N)CN(c2nc(Nc3ccc(C(=O)CC(=O)Nc4cccc(C(F)(F)F)c4)cc3)nc(N3C[C@H](N)C[C@H](N)C3)n2)C1 is ___
output: < 16 µg/mL

input: Any idea what its MIC is? The compound is COc1cccc(C(=O)Nc2ccc(Nc3nc(N4C[C@H](N)C[C@H](N)C4)nc(N4C[C@H](N)C[C@H](N)C4)n3)cc2)c1O
output: < 64 µg/mL

---

Tested on: Escherichia coli (ATCC25922) or Staphylococcus aureus (ATCC25923)
Assay: Antibacterial MIC, microdilution method in Mueller-Hinton medium
Format: cell-based
Details: Escherichia coli, 18 h, MIC in E. coli or S. aureus; two-fold serial dilutions 64 to 0.5 μg/ml in duplicate; 18 hours of incubation at 35° C.; read-out: Potency (MIC)
measurement-type: MIC

input: Look up MIC: Cc1cc(NC(=O)c2cc3cccc(O)c3cc2O)ccc1Nc1nc(N2C[C@H](N)C[C@H](N)C2)nc(N2C[C@H](N)C[C@H](N)C2)n1
output: < 64 µg/mL

input: Sample CSc1nnc(Nc2nc(N3C[C@H](N)C[C@H](N)C3)nc(N3C[C@H](N)C[C@H](N)C3)n2)s1.Cl — what was its MIC?
output: > 64 µg/mL

input: # get_value(readout='MIC', item= Cl.NC(=O)c1ccc(Nc2nc(N3C[C@H](N)C[C@H](N)C3)nc(N3C[C@H](N)C[C@H](N)C3)n2)cc1 )
output: > 64 µg/mL

input: I am curious: what MIC value has been reported for CN1CCCC1CCNc1nc(N2C[C@H](N)C[C@H](N)C2)nc(N2C[C@H](N)C[C@H](N)C2)n1.Cl (some centres unmarked) ?
output: > 64 µg/mL

input: Can you share its MIC? I mean this compound: Cl.N[C@@H]1C[C@H](N)CN(c2nc(Nc3cccc(C(F)(F)F)c3)nc(N3C[C@H](N)C[C@H](N)C3)n2)C1
output: < 64 µg/mL

input: Can you share its MIC? I mean this compound: Cl.O=C(Oc1ccccc1)c1ccc(Nc2nc(N3CCCCC3)nc(N3CCCC3)n2)cc1O
output: < 64 µg/mL

input: Entry Cc1cc(NC(=O)c2ccccc2)c(Cl)cc1Nc1nc(N2CCCCC2)nc(N2CCCCC2)n1 has what MIC?
output: > 64 µg/mL

input: I would be grateful if you could share the reported MIC for Cl.N[C@@H]1C[C@H](N)CN(c2nc(Nc3ccccc3)nc(N3C[C@H](N)C[C@H](N)C3)n2)C1 .
output: > 64 µg/mL

input: Looking for the measured MIC of Cl.O=[N+]([O-])c1ccc(S(=O)(=O)c2ccc(Nc3nc(N4CCCCC4)nc(N4CCCCC4)n3)cc2)cc1 , can you help?
output: < 16 µg/mL

input: Fill in: MIC of N[C@@H]1C[C@H](N)CN(c2nc(Nc3ccc(Br)cc3)nc(N3C[C@H](N)C[C@H](N)C3)n2)C1 is ___
output: > 64 µg/mL

input: Find the recorded MIC belonging to Cl.NC1CCCN(c2nc(Nc3ccc(Cl)c(Cl)c3)nc(N3CCCCC3)n2)C1 (centres unmarked) and report it.
output: < 64 µg/mL

input: Endpoint output: MIC of N[C@@H]1C[C@H](N)CN(c2nc(Nc3ccccc3S(N)(=O)=O)nc(N3C[C@H](N)C[C@H](N)C3)n2)C1 . Value?
output: > 64 µg/mL

input: Value lookup for MIC; key = COc1nc(Nc2ccc(C(=O)CC(=O)Nc3ccccc3Cl)cc2)nc(N2C[C@H](N)C[C@H](N)C2)n1.Cl
output: < 16 µg/mL

input: Form field: reported MIC of Cl.O=C(Nc1ccc(Cl)cc1Cl)c1ccc(Nc2nc(N3CCCCC3)nc(N3CCCCC3)n2)cc1O
output: < 16 µg/mL

input: Dear colleague, I am looking for the recorded MIC of the following compound: Cl.N[C@@H]1C[C@H](N)CN(c2nc(Nc3ccc(O)c4ccccc34)nc(N3C[C@H](N)C[C@H](N)C3)n2)C1
output: < 16 µg/mL

input: Name the reported MIC value associated with the compound COc1cc(NC(=O)CC(=O)c2ccc(Nc3nc(N4C[C@H](N)C[C@H](N)C4)nc(N4C[C@H](N)C[C@H](N)C4)n3)cc2)cc(OC)c1OC
output: > 64 µg/mL

input: Which MIC is listed for Cl.O=C(Nc1cc(C(F)(F)F)ccc1Cl)c1ccc(Nc2nc(N3CCCCC3)nc(N3CCCCC3)n2)cc1O ?
output: < 64 µg/mL

input: State the recorded MIC for this entry: N[C@@H]1C[C@H](N)CN(c2nc(Nc3ccc(NC(=O)c4cnc5ccccc5n4)c(O)c3)nc(N3C[C@H](N)C[C@H](N)C3)n2)C1
output: < 64 µg/mL

input: For the compound Cc1cc(Nc2nc(N3C[C@H](N)C[C@H](N)C3)nc(N3C[C@H](N)C[C@H](N)C3)n2)ccc1NC(=O)c1cc2cccc(O)c2cc1O , what MIC is on record?
output: < 64 µg/mL

input: Suppose we examine the compound CC(C)(C)C(=O)Nc1ccc(S(=O)(=O)Nc2ccc(Nc3nc(N4C[C@H](N)C[C@H](N)C4)nc(N4C[C@H](N)C[C@H](N)C4)n3)cc2O)cc1.Cl ; what MIC value has been reported?
output: > 64 µg/mL

input: Looking for the measured MIC of CC(=O)c1ccc(Nc2nc(N3C[C@H](N)C[C@H](N)C3)nc(N3C[C@H](O)C[C@@H](O)C3)n2)cc1 , can you help?
output: > 64 µg/mL

input: Requested field: MIC. Item: COc1cnc(NS(=O)(=O)c2ccc(Nc3nc(N4C[C@H](N)C[C@H](N)C4)nc(N4C[C@H](N)C[C@H](N)C4)n3)cc2)nc1
output: > 64 µg/mL

input: Name the recorded MIC for Cc1cc(Nc2nc(N3C[C@H](N)C[C@H](N)C3)nc(N3C[C@H](N)C[C@H](N)C3)n2)no1.Cl .
output: > 64 µg/mL

input: # lookup: MIC of COc1cc(NC(=O)c2ccc(Nc3nc(N4CCCCC4)nc(N4CCCCC4)n3)cc2O)cc(OC)c1OC.Cl
output: < 64 µg/mL

input: Looking for the measured MIC of Cc1cc(Cl)ccc1CNc1nc(N2CCCCC2)nc(N2CCCCC2)n1.Cl , can you help?
output: > 64 µg/mL

input: Which MIC is reported for this compound? CCN(C)CCNC(=O)c1ccc(NC(=O)CC(=O)c2ccc(Nc3nc(N4CCCCC4)nc(N4CCCCC4)n3)cc2)cc1.Cl
output: > 64 µg/mL

input: # get_value(readout='MIC', item= N[C@@H]1C[C@H](N)CN(c2nc(Nc3ccc(NC(=O)c4ccc(N5Cc6ccccc6C5)cc4O)cc3)nc(N3C[C@H](N)C[C@H](N)C3)n2)C1 )
output: < 16 µg/mL

input: What MIC value was documented for this compound, Cl.NC1C[C@@H](N)CN(c2nc(Nc3ccc(NC(=O)c4cc(Cl)ccc4O)cc3)nc(N3C[C@H](N)C[C@H](N)C3)n2)C1 (stereo in doubt) ?
output: < 16 µg/mL

input: Given Cl.O=C(Nc1ccc(Nc2cc(N3CCCCC3)cc(N3CCCCC3)c2)cc1)c1ccc2ccccc2c1O , state its recorded MIC.
output: < 16 µg/mL
